Test system: SF-295 CNS
Experiment: NCI tumour cell line growth inhibition, 48 h
Recorded GI50, one value per entry.

• COc1cc(C(=O)N2CCN(c3ccccc3OC)CC2)c(N)cc1OCc1ccccc1 = 40.3 µM
• N#Cc1c(NC(=O)c2cccc3ccccc23)sc2c1CCCC2 = 0.0109 µM
• Cn1ccnc1C(=O)/C=C/c1ccc(C(=O)Nc2ccccc2O)cc1 = 3.53 µM
• Cc1cc(NCCCCNc2ccnc3cc(Cl)ccc23)nc(Nc2ccc(C(=O)N3CCCC3)cc2)n1 = 1.78 µM
• CCCCCCCCCCCCCC(=O)OC(/C=C/C(C)C)C(O)C(O)C(OC)C(=O)NC1CCCCNC1=O (stereo not drawn) = 2.92 µM
• CCN(CC)CCCNc1nc2ccccc2c2c(=O)c3cc(Cl)ccc3sc12 = 7.96 µM
• CC(C)=CCc1ccc(O)c(=O)cc1C(C)C = 0.939 µM

Continue with the next molecule.
Look up GI50: O=C(NCC(=O)N1CC[C@H](NC2CCC(O)(c3ccc(-c4ncccn4)cn3)CC2)C1)c1cccc(C(F)(F)F)c1 (stereo partly drawn)
38.2 µM

---

Test system: SF-268 CNS
Experiment: NCI tumour cell line growth inhibition, 48 h
Recorded TGI, one value per entry.
Respond with the bare value in µM.

- O=C(N/N=C/C=C/c1ccc([N+](=O)[O-])o1)c1ccc(Br)s1: 98.4
- O=C1N(CN2CCOCC2)CN(CN2CCOCC2)C(=O)N1Cc1ccccc1: 53.1
- O=C1c2ccccc2C(=O)C2C3c4ccccc4C(c4ccccc43)C12 (configuration not stated): 34.9

Continue with the next molecule.
Look up TGI: Cn1cnc([N+](=O)[O-])c1Sc1nc2cccnc2s1
69.1

---

Test system: LOX IMVI melanoma
Experiment: NCI tumour cell line growth inhibition, 48 h
Where TGI equals or exceeds 20 µM, the correct label is MET; where it does not, the label is NOT MET.

* O=C(NCC(=O)N1CC[C@H](NC2CCC(O)(c3ccc(-c4ncccn4)cn3)CC2)C1)c1cccc(C(F)(F)F)c1 (some centres not stated) | MET
* CC1(C)O[C@H]2[C@@H]3N=C(c4ccccc4)O[C@@H]3C=C[C@H]2O1 | MET
* O=C(N/N=c1/ccoc2cccnc12)N1CCN(c2ncccn2)CC1 | NOT MET
* O=C1NC(N/N=C/c2ccccc2)=N/C1=C\c1cccs1 | MET
* CN(C)CCCNC(=O)c1cc(NC(=O)c2cc(NC(=O)[C@H]3C[C@@H]3C(=O)Nc3cc(C(=O)Nc4cc(C(=O)NCCCN(C)C)n(C)c4)n(C)c3)cn2C)cn1C | MET

# check: TGI of O=C1N(CN2CCOCC2)CN(CN2CCOCC2)C(=O)N1Cc1ccccc1 is greater than or equal to 20 µM
MET

Repeat for the following compound: O=C1c2cccc3cccc(c23)C(=O)N1CCCCN1CCN(CCCCOc2ccc(-c3nc4ccc(N5CCOCC5)cc4[nH]3)cc2)CC1
MET

Repeat for the following compound: COc1ccc(N(C)c2nc(Cl)nc3ccn(C)c23)cc1
MET

Repeat for the following compound: CO/N=C(\COc1ccc2c(c1)oc(=O)c1cc(OC)ccc12)c1ccc(F)cc1
MET

Repeat for the following compound: C=C(CN(C)C)C(=O)c1cc(C)ccc1C
NOT MET

Repeat for the following compound: O=NNc1cnccn1
MET

Repeat for the following compound: O=C(Nc1ccc([N+](=O)[O-])cc1C(=O)O)c1ccc([N+](=O)[O-])cc1
MET

Origin of measurements: PubChem BioAssay (NCI)
